Experiment: in vitro
Settings: human, Caco-2, CACO permeability PEAB, apical to basolateral
Source text: Supplementary Table 1. Structure-Activity Relationships part 1 (SPR, Caco-2) […] SPR. Mean values ± standard deviation. Footnotes indicate the number of measurements performed for the respective compound: a) n = […] [5] Permeability across Caco-2 monolayers in P(A−B): apical to basolateral and P(B−A): basolateral to apical direction (values reported in 10- 6 cm s-1); efflux ratio = P(B−A)/P(A−B); Int. perm: mean value of P(A−B) and P(B−A). […] Influence of Trp-Nα methylation on P(A-B) and efflux ratio. […]
*1 amine or outer side, *2 acyl side, *3 side chain or, on linkers, in order; H or OH if unused. Where a SMILES comes first, the peptide text is derived from it. [ ]: non-standard residue; d: D form. ξ: configuration not given here. X3 = C#CCOc1ccc([C@@H](OC)[C@H](N[*:1])C(=O)[*:2])cc1; X5 = C=CCn1cc(C[C@@H](C(=O)[*:2])N(C)[*:1])c2ccccc21; X1 = C#CCn1cc(C[C@H](N[*:1])C(=O)[*:2])c2ccccc21; X7 = C=CCn1cc(C[C@H](N[*:1])C(=O)[*:2])c2ccccc21; NMeLeu(5-OH,4R) = CN[C@@H](C[C@@H](C)CO)C(=O)O; Phe(βR-OMe) = CO[C@H](c1ccccc1)[C@H](N)C(=O)O; ξNMeTrp(1-Me) = CNC(Cc1cn(C)c2ccccc12)C(=O)O; X8 = CC(CO)C[C@@H](C(=O)[*:2])N(C)[*:1]; NMeL = CN[C@@H](CC(C)C)C(=O)O; ξV = CC(C)C(N)C(=O)O
metric: Papp A→B (×10⁻⁶ cm/s)

molecule | metric | value.modifier | measured.number
CO[C@H](c1ccccc1)[C@@H]1NC(=O)[C@H](C)NC(=O)[C@H](C[C@@H](C)CO)N(C)C(=O)[C@H](Cc2cn(C)c3ccccc23)N(C)C(=O)[C@H](Cc2cn(CCOCCOCCn3cc(C[C@@H]4NC(=O)[C@H](CC(C)C)N(C)C(=O)[C@H](C(C)C)NC(=O)[C@H]([C@H](OC)c5ccccc5)NC(=O)[C@H](C)NC(=O)[C@H](C[C@@H](C)CO)N(C)C(=O)[C@H](Cc5cn(C)c6ccccc56)N(C)C4=O)nn3)nn2)NC(=O)[C@H](CC(C)C)N(C)C(=O)[C@H](C(C)C)NC1=O | Papp A→B | < | 0.49
C#CCn1cc(C[C@@H]2NC(=O)[C@H](C(C)C)NC(=O)[C@H](CC(C)C)N(C)C(=O)[C@H](C(C)C)NC(=O)[C@H](Cc3ccccc3)NC(=O)[C@H](C)NC(=O)[C@H](C[C@@H](C)CO)N(C)C2=O)c2ccccc21 [SI-72] (cyclo(AFV[NMeL]V[X1][NMeLeu(5-OH,4R)])) | Papp A→B | = | 0.17
C#CCOc1ccc([C@@H](OC)[C@@H]2NC(=O)[C@@H](C)NC(=O)[C@H](CC(C)CO)N(C)C(=O)C(Cc3cn(C)c4ccccc34)N(C)C(=O)C(C(C)C)NC(=O)[C@H](CC(C)C)N(C)C(=O)[C@@H](C(C)C)NC2=O)cc1 (stereo partly shown) [SI-64] (cyclo([NMeL][ξV][ξNMeTrp(1-Me)][X8][dA][X3][dV])) | Papp A→B | = | 17
CO[C@H](c1ccccc1)[C@@H]1NC(=O)[C@H](C)NC(=O)[C@H](C[C@@H](C)CO)N(C)C(=O)[C@H](Cc2cn(Cc3cn(CCOCCn4cc(Cn5cc(C[C@@H]6NC(=O)[C@H](C(C)C)NC(=O)[C@H](CC(C)C)N(C)C(=O)[C@H](C(C)C)NC(=O)[C@H]([C@H](OC)c7ccccc7)NC(=O)[C@H](C)NC(=O)[C@H](C[C@@H](C)CO)N(C)C6=O)c6ccccc65)nn4)nn3)c3ccccc23)NC(=O)[C@H](C(C)C)NC(=O)[C@H](CC(C)C)N(C)C(=O)[C@H](C(C)C)NC1=O | Papp A→B | < | 2.6
C=CCn1cc(C[C@@H]2NC(=O)[C@H](C(C)C)NC(=O)[C@H](CC(C)C)N(C)C(=O)[C@H](C(C)C)NC(=O)[C@H]([C@H](OC)c3ccccc3)NC(=O)[C@H](C)NC(=O)[C@H](C[C@@H](C)CO)N(C)C2=O)c2ccccc21 [Compound 13] (cyclo(A[Phe(βR-OMe)]V[NMeL]V[X7][NMeLeu(5-OH,4R)])) | Papp A→B | = | 4.5
CCCCCn1cc(C[C@@H]2NC(=O)[C@H](CC(C)C)N(C)C(=O)[C@H](C(C)C)NC(=O)[C@H]([C@H](OC)c3ccccc3)NC(=O)[C@H](C)NC(=O)[C@H](C[C@@H](C)CO)N(C)C(=O)[C@H](Cc3cn(C)c4ccccc34)NC2=O)nn1 | Papp A→B | < | 0.27
C=CCn1cc(C[C@H]2C(=O)N(C)[C@@H](C[C@@H](C)CO)C(=O)N[C@@H](C)C(=O)N[C@@H]([C@H](OC)c3ccccc3)C(=O)N[C@@H](C(C)C)C(=O)N(C)[C@@H](CC(C)C)C(=O)N[C@@H](C(C)C)C(=O)N2C)c2ccccc21 [SI-60] (cyclo(A[Phe(βR-OMe)]V[NMeL]V[X5][NMeLeu(5-OH,4R)])) | Papp A→B | = | 46

Values were extracted from paper PMC10914731.
